- Test system: UCD52 (cells of a triple-negative basal-like breast cancer xenograft)
- PROTOCOL_DESCRIPTION: cell viability (% of vehicle); higher = less cytotoxic
- COND: 10 µM; 72 h
Define the label as Criterion met when cell viability is strictly less than 100 and as Criterion not met in all remaining cases.

CC12CCC(O)CC1=CCC1C2CCC2(C)C(c3cccnc3)=CCC12 (configuration not stated): Criterion met

Dear colleague, could you confirm whether cell viability of CCC1(O)CC2CN(CCc3c([nH]c4ccccc34)C(C(=O)OC)(c3cc4c(cc3OC)N(C)C3C(O)(C(=O)OC)C(OC(C)=O)C5(CC)C=CCN6CCC43C65)C2)C1.O=S(=O)(O)O (configuration not stated) [Vinblastine sulfate] falls below 100? Thanks.
Criterion met

Quick check: does CC(=O)OCC(=O)C1(O)C(C)CC2C3CCC4=CC(=O)C=CC4(C)C3(F)C(O)CC21C (configuration not stated) [Dexamethasone acetate] have cell viability under 100?
Criterion not met

# TODO verify cell viability < 100 strictly for this compound: Cl.NC(N)=NC(=O)c1nc(Cl)c(N)nc1N.O.O [Amiloride HCl dihydrate]
Criterion met

###

- Test system: HCI03 (cells of an ER-positive luminal breast cancer xenograft)
- PROTOCOL_DESCRIPTION: cell viability (% of vehicle); higher = less cytotoxic
- COND: 10 µM; 72 h
Consider the following compounds; for each one, report its cell viability.
Answers are plain numbers.

Cn1c(=O)c2c(ncn2CC2OCCO2)n(C)c1=O [Doxofylline]: 117
Nc1ccc(S(N)(=O)=O)cc1 [Sulfanilamide]: 127
Clc1ccc(COC(Cn2ccnc2)c2ccc(Cl)cc2Cl)c(Cl)c1.O=[N+]([O-])O (configuration not stated) [Miconazole Nitrate]: 93.1
NC(=O)OCC(COC(N)=O)c1ccccc1 [Felbamate]: 137
CC(=O)OC1(C(C)=O)CCC2C3C=C(C)C4=CC(=O)CCC4(C)C3CCC21C (configuration not stated) [Megestrol Acetate]: 121
Nc1nc(=O)c2c([nH]1)NCC(CNc1ccc(C(=O)NC(CCC(=O)[O-])C(=O)[O-])cc1)N2C=O.O.O.O.O.O.[Ca+2] (configuration not stated) [Leucovorin Calcium]: 102

Consider the compound Cl.NC1=NCC2c3ccccc3Cc3ccccc3N12 (configuration not stated) [Epinastine HCl] and give its recorded cell viability.
94.8

###

- System: HCI11 (cells of an ER-positive luminal breast cancer xenograft)
- PROTOCOL_DESCRIPTION: cell viability (% of vehicle); higher = less cytotoxic
- COND: 10 µM; 72 h
MEASUREMENT_TYPE: cell viability

Examples from the recorded data:
COC(=O)C1C2CC3c4[nH]c5cc(OC)ccc5c4CCN3CC2CC(OC(=O)c2cc(OC)c(OC)c(OC)c2)C1OC.Cl (stereo unspecified) [Reserpine hydrochloride]: 97.6
C[N+](C)(C)CCO.[Cl-] [Choline Chloride]: 78.8

Below are 7 molecules. Give each one its cell viability.
1. CN(C)C(=O)COC(=O)Cc1ccc(OC(=O)c2ccc(N=C(N)N)cc2)cc1.CS(=O)(=O)O [Camostat Mesilate]
2. Cc1cnc(C(=O)O)c[n+]1[O-]
3. Cn1cnc2c(F)c(Nc3ccc(Br)cc3Cl)c(C(=O)NOCCO)cc21 [AZD6244 (Selumetinib)]
4. COCCCOc1ccnc(C[S+]([O-])c2nc3ccccc3[nH]2)c1C (stereo unspecified) [Rabeprazole sodium]
5. COC(=O)C1=C(C)NC(C)=C(C(=O)OCCN(C)Cc2ccccc2)C1c1cccc([N+](=O)[O-])c1.Cl (stereo unspecified) [Nicardipine HCl]
6. Clc1ccc2nsnc2c1NC1=NCCN1
7. Cl.c1ccc(CC2=NCCN2)cc1 [Tolazoline HCl]

1. 70.7
2. 78.9
3. 112
4. 115
5. 65.4
6. 110
7. 91.4

For each listed entry, give its cell viability.
1. CCN(CC)CCCC(C)Nc1ccnc2cc(Cl)ccc12.O=P(O)(O)O.O=P(O)(O)O (stereo unspecified) [Chloroquine diphosphate]
2. CC(C)NCC(O)COc1ccc(COCCOC(C)C)cc1.O=C(O)C=CC(=O)O (stereo unspecified) [Bisoprolol fumarate]
3. CC(C)(C)Cn1c(N)nc2ccc(-c3[nH]c(C(C)(C)C)nc3-c3ccc(F)cc3)nc21.CS(=O)(=O)O.CS(=O)(=O)O
4. CC(=CC(=O)OCCCCCCCCC(=O)O)CC1OCC(CC2OC2C(C)C(C)O)C(O)C1O (stereo unspecified)
5. CC12CCC3c4ccc(O)cc4CC(CCCCCCCCCS(=O)CCCC(F)(F)C(F)(F)F)C3C1CCC2O (stereo unspecified)
6. CC1CC2C(C(O)CC3(C)C2CCC3(O)C(=O)CO)C2(C)C=CC(=O)C=C12 (stereo unspecified)
7. CNCC(O)c1cccc(O)c1.Cl (stereo unspecified) [Phenylephrine HCl]

1. 88.4
2. 113
3. 81
4. 90.6
5. 85.6
6. 136
7. 105

###

- System: UCD52
- PROTOCOL_DESCRIPTION: cell viability of combination (% of vehicle); higher = less cytotoxic
- COND: 1 µM; 72 h; partner dose: 10 nM
MEASUREMENT_TYPE: cell viability of combination
Numbers only.

In the examples that follow, each entry is paired with its recorded cell viability of combination.
CN(C(=O)CN(CCO)CC(=O)N(C)C(C)(C)Cc1ccccc1)C(C)(C)Cc1ccccc1 [Oxethazaine] + CC(C)C[C@H](NC(=O)[C@H](CCc1ccccc1)NC(=O)CN1CCOCC1)C(=O)N[C@@H](Cc1ccccc1)C(=O)N[C@@H](CC(C)C)C(=O)[C@@]1(C)CO1: 66.5
CS(=O)(=O)CCNCc1ccc(-c2ccc3ncnc(Nc4ccc(OCc5cccc(F)c5)c(Cl)c4)c3c2)o1.Cc1ccc(S(=O)(=O)O)cc1.Cc1ccc(S(=O)(=O)O)cc1 [Lapatinib Ditosylate] + CC(C)C[C@H](NC(=O)[C@H](CCc1ccccc1)NC(=O)CN1CCOCC1)C(=O)N[C@@H](Cc1ccccc1)C(=O)N[C@@H](CC(C)C)C(=O)[C@@]1(C)CO1: 47.7

Write cell viability of combination of CCCCCOc1ccc(-c2ccc(-c3ccc(C(=O)N[C@H]4C[C@@H](O)[C@@H](O)NC(=O)[C@@H]5[C@@H](O)[C@@H](C)CN5C(=O)[C@H]([C@@H](C)O)NC(=O)[C@H]([C@H](O)[C@@H](O)c5ccc(O)cc5)NC(=O)[C@@H]5C[C@@H](O)CN5C(=O)[C@H]([C@@H](C)O)NC4=O)cc3)cc2)cc1 [Anidulafungin] + CC(C)C[C@H](NC(=O)[C@H](CCc1ccccc1)NC(=O)CN1CCOCC1)C(=O)N[C@@H](Cc1ccccc1)C(=O)N[C@@H](CC(C)C)C(=O)[C@@]1(C)CO1 ; system used: UCD52
60

###

- Test system: WHIM30 (cells of a triple-negative basal-like breast cancer xenograft)
- PROTOCOL_DESCRIPTION: cell viability (% of vehicle); higher = less cytotoxic
- COND: 10 µM; 72 h
MEASUREMENT_TYPE: cell viability
Give bare numbers.

OCC(O)CN1CCN(c2ccccc2)CC1 (stereo not given): 102

Dear colleague, could you please provide cell viability for the compounds listed below?
1. CC(Cc1ccc(O)c(O)c1)(NN)C(=O)O (stereo not given)
2. CC(Oc1cc(-c2cnn(C3CCNCC3)c2)cnc1N)c1c(Cl)ccc(F)c1Cl [(R)-Crizotinib]
3. CC(=O)N(CC(O)CO)c1c(I)c(C(=O)NCC(O)CO)c(I)c(C(=O)NCC(O)CO)c1I (stereo not given) [Iohexol]

1: 126; 2: 125; 3: 95.9

###

- Tested on: HCI03
- PROTOCOL_DESCRIPTION: cell viability (% of vehicle); higher = less cytotoxic
- COND: 10 µM; 72 h
In plain terms, low cell viability, meaning strictly below 100, gives Fulfilled, and everything else gives Not fulfilled.

Solved cases (7 shown):
CC(C)C1CCC(C(=O)NC(Cc2ccccc2)C(=O)O)CC1 (stereo not drawn) [Nateglinide]: Not fulfilled
CCCNC(C)C(=O)Nc1c(C)csc1C(=O)OC.Cl (stereo not drawn) [Articaine HCl]: Not fulfilled
Nc1ccc(S(=O)(=O)Nc2nccs2)cc1 [Sulfathiazole]: Not fulfilled
CCCc1cc(=O)[nH]c(=S)[nH]1 [Propylthiouracil]: Not fulfilled
COC(=O)NC(C(=O)NC(Cc1ccccc1)C(O)CN(Cc1ccc(-c2ccccn2)cc1)NC(=O)C(NC(=O)OC)C(C)(C)C)C(C)(C)C (stereo not drawn) [Atazanavir]: Fulfilled
CCc1c2c(nc3ccc(OC(=O)N4CCC(N5CCCCC5)CC4)cc13)-c1cc3c(c(=O)n1C2)COC(=O)C3(O)CC (stereo not drawn) [Irinotecan]: Not fulfilled
COCCCOc1ccnc(C[S+]([O-])c2nc3ccccc3[nH]2)c1C (stereo not drawn) [Rabeprazole]: Not fulfilled

Attention now turns to another entry.
Is cell viability strictly under 100 for the entry CN1CCN(C2=Nc3ccccc3Oc3ccc(Cl)cc32)CC1.O=C(O)CCC(=O)O [Loxapine Succinate] ?
Fulfilled

###

Kindly state cell viability for each of the entries shown.
- System: HCI03
- PROTOCOL_DESCRIPTION: cell viability (% of vehicle); higher = less cytotoxic
- COND: 10 µM; 72 h
One number for each entry.

Example results:
Cc1cnc(Nc2ccc(OCCN3CCCC3)cc2)nc1Nc1cccc(S(=O)(=O)NC(C)(C)C)c1: 173
CCCCOc1cc(C(=O)NCCN(CC)CC)c2ccccc2n1.Cl [Dibucaine (Cinchocaine) HCl]: 154
CC(Cc1cc2c(c(C(N)=O)c1)N(CCCO)CC2)NCCOc1ccccc1OCC(F)(F)F (stereo not drawn) [Silodosin]: 99.5
CCc1c(Cl)c(O)c(Cl)c(O)c1C(=O)OC1C(C)OC(OCC2=CC=CCC(O)C(C)=CC(CC)C(OC3OC(C)(C)C(OC(=O)C(C)C)C(O)C3O)C(C)=CC(C)=CCC(C(C)O)OC2=O)C(OC)C1O (stereo not drawn) [Fidaxomicin]: 65.5

Please state cell viability for every molecule in the list that follows.
1. CCC1OC(=O)C(C)C(OC2CC(C)(OC)C(O)C(C)O2)C(C)C(OC2OC(C)CC(N(C)C)C2O)C(C)(O)CC(C)C2NC(COCCOC)OC(C2C)C1(C)O (stereo not drawn) [Dirithromycin]
2. CC1C(=O)OC2CC34C5CC(C(C)(C)C)C36C(OC(=O)C6O)OC4(C(=O)O5)C21O (stereo not drawn) [Ginkgolide A]
3. CCCCC(=O)OC1(C(=O)CO)C(C)CC2C3CCC4=CC(=O)C=CC4(C)C3(F)C(O)CC21C (stereo not drawn) [Betamethasone Valerate]

1. 117
2. 112
3. 169

Respectfully, I request cell viability for each entry included below.
1. Cc1nc(NC(=O)N2CCCC2C(N)=O)sc1-c1ccnc(C(C)(C)C(F)(F)F)c1 (stereo not drawn)
2. CCS(=O)(=O)CCn1c([N+](=O)[O-])cnc1C [Tinidazole]
3. CCN(CCO)CCCC(C)Nc1ccnc2cc(Cl)ccc12.O=S(=O)(O)O (stereo not drawn) [Hydroxychloroquine Sulfate]
4. CC(OC1OCCN(Cc2nc(=O)[nH][nH]2)C1c1ccc(F)cc1)c1cc(C(F)(F)F)cc(C(F)(F)F)c1 (stereo not drawn) [Aprepitant]
5. Nc1nc(=O)c2c(CCc3ccc(C(=O)NC(CCC(=O)[O-])C(=O)[O-])cc3)c[nH]c2[nH]1.[Na+].[Na+] (stereo not drawn) [Pemetrexed]
6. CN(C)CC(c1ccc(O)cc1)C1(O)CCCCC1 (stereo not drawn) [Desvenlafaxine]

1: 45.8; 2: 111; 3: 96.6; 4: 91.5; 5: 102; 6: 118
